What DC50 was measured for each of the following?
target: androgen receptor (AR) splicing variant AR-v7 (Homo sapiens, UniProt P10275); construct: The degradation activity of compounds on AR-v7 in 22RV1 cells; host or cells: 22RV1 cells; assay: Degradation activity on androgen receptor splicing variant AR-v7 in 22RV1 cells (ELISA); assay type: cell-based; details: AR-v7 degradation in 22RV1 cells, 48 h, class symbols
Sequence (P10275 1-644 isoform P10275-3): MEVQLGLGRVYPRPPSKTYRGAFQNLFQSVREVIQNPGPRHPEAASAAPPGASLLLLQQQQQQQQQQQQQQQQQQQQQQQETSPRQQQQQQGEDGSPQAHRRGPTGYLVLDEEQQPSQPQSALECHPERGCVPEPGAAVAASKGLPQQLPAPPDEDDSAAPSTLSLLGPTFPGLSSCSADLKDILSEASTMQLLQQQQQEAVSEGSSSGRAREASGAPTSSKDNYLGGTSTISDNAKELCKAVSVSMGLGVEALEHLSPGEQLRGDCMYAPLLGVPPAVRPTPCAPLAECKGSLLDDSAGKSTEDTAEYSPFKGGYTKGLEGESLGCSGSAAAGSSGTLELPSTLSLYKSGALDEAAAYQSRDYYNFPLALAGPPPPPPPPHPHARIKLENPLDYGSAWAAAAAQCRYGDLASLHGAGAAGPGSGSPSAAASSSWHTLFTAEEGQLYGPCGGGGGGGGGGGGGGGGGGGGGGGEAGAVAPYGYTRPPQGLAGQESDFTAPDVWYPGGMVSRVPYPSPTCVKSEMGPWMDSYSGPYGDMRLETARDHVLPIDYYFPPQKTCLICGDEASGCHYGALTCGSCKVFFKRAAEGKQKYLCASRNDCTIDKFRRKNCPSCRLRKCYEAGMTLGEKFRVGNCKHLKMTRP

Here are 5 molecules. What values of DC50 were reported for them?
1. CN(C)[C@@H]1CCCN(c2nccc(COc3ccc(C(C)(C)c4ccc(O[C@H]5C[C@@H](Nc6ccc7c(c6)C(=O)N(C6CCC(=O)NC6=O)C7=O)C5)cc4)cc3)n2)C1 (some centres unmarked) [Example 402]
2. Cc1nc(-c2ncc(Oc3ccc(C(C)(C)c4ccc(N5CCC56CN(c5ccc7c(c5)C(=O)N(C5CCC(=O)NC5=O)C7=O)C6)cc4)cc3)cn2)no1 (centres unmarked) [Example 179]
3. CN(C)C(=O)c1noc(COc2ccc(C(C)(C)c3ccc(OCCCNc4ccc5c(c4)C(=O)N(C4CCC(=O)NC4=O)C5=O)cc3)cc2)n1 (centres unmarked) [Example 180]
4. CC(O)c1ccc(Oc2ccc(C3(c4ccc(O[C@H]5C[C@H](Nc6ccc7c(c6)C(=O)N(C6CCC(=O)NC6=O)C7=O)C5)cc4)CCCC3)cc2)nn1 (some centres unmarked) [Example 103]
5. CN1CCC(Oc2nccc(COc3ccc(C(C)(C)c4ccc(O[C@H]5C[C@@H](Nc6ccc7c(c6)C(=O)N(C6CCC(=O)NC6=O)C7=O)C5)cc4)cc3)n2)CC1 (some centres unmarked) [Example 234]

1: 11 to 100 nM; 2: 101 to 1000 nM; 3: 1000 to 5000 nM; 4: < 10 nM; 5: 11 to 100 nM
